target: UniProtKB Q12809; experiment: Inhibition of human ERG at 1 uM relative to control
Rule: inhibition at 1 µM under 20% gives False, otherwise True.

[
  {
    "COMPOUND": "NC(=O)c1cc(Cl)c2c(Cl)c(C#CCO)n([C@H]3CCCNC3)c2n1",
    "TARGET_ENTITY": "UniProtKB Q12809",
    "LABEL_CLASS": "True"
  },
  {
    "COMPOUND": "CC(O)C#Cc1c(Cl)c2c(Cl)cc(C(N)=O)nc2n1[C@H]1CCCNC1 (some centres not stated)",
    "TARGET_ENTITY": "UniProtKB Q12809",
    "LABEL_CLASS": "False"
  },
  {
    "COMPOUND": "NC(=O)c1cc(Cl)c2c(Cl)c(C#CC3CC3)n([C@H]3CCCNC3)c2n1",
    "TARGET_ENTITY": "UniProtKB Q12809",
    "LABEL_CLASS": "True"
  },
  {
    "COMPOUND": "NC(=O)c1cc(Cl)c2c(Cl)c(C#CCCO)n([C@H]3CCCNC3)c2n1",
    "TARGET_ENTITY": "UniProtKB Q12809",
    "LABEL_CLASS": "False"
  },
  {
    "COMPOUND": "CC(O)CC#Cc1c(Cl)c2c(Cl)cc(C(N)=O)nc2n1[C@H]1CCCNC1 (some centres not stated)",
    "TARGET_ENTITY": "UniProtKB Q12809",
    "LABEL_CLASS": "False"
  }
]

====

assay: AUC (0 to infinity) in rat at 10 mg/kg, po administered as single dose; assay type: ADME, organism-based; set-up: dose 10 mg/kg, route oral, time infinity; conditions: in vivo
The following compounds are listed with their measured AUC(0-inf) values.

[
  {
    "COMPOUND": "COCCC#Cc1c(Cl)c2c(Cl)cc(C(N)=O)nc2n1[C@H]1CCCNC1",
    "UNIT_OF_MEASURE": "ng·h/mL",
    "AUC(0-inf)": 643
  },
  {
    "COMPOUND": "NC(=O)c1cc(Cl)c2c(Cl)c(C#CC3CCOCC3)n([C@H]3CCCNC3)c2n1",
    "UNIT_OF_MEASURE": "ng·h/mL",
    "AUC(0-inf)": 979
  },
  {
    "COMPOUND": "NC(=O)c1cc(Cl)c2c(Cl)c(C#CC3CCCO3)n([C@H]3CCCNC3)c2n1 (stereo in doubt; 20b)",
    "UNIT_OF_MEASURE": "ng·h/mL",
    "AUC(0-inf)": 326
  }
]

====

assay: Clearance in human liver microsomes assessed as drug extraction at 5 uM; format: ADME, Microsome; conditions: microsomes, 5 µM
EXPERIMENTAL_ENDPOINT: CLH (%)

[
  {
    "COMPOUND": "NC(=O)c1cc(Cl)c2c(Cl)c(C#CC3CNCCO3)n([C@H]3CCCNC3)c2n1 (stereo in doubt; 29b)",
    "EXPERIMENTAL_ENDPOINT": "CLH",
    "OBSERVED": 0
  },
  {
    "COMPOUND": "NC(=O)c1cc(Cl)c2c(Cl)c(C#CC3CCCO3)n([C@H]3CCCNC3)c2n1 (stereo in doubt; 20b)",
    "EXPERIMENTAL_ENDPOINT": "CLH",
    "OBSERVED": 24
  },
  {
    "COMPOUND": "NC(=O)c1cc(Cl)c2c(Cl)c(C#CC3CNCCO3)n([C@H]3CCCNC3)c2n1 (stereo in doubt; 29a)",
    "EXPERIMENTAL_ENDPOINT": "CLH",
    "OBSERVED": 6
  },
  {
    "COMPOUND": "NC(=O)c1cc(Cl)c2c(Cl)c(C#CC3COCCO3)n([C@H]3CCCNC3)c2n1 (stereo in doubt; 22b)",
    "EXPERIMENTAL_ENDPOINT": "CLH",
    "OBSERVED": 10
  }
]

====

inhibition at 10 µM overview
target: hERG (KCNH2) (Homo sapiens); experiment: Inhibition of human ERG at 10 uM relative to control
Sequence (Q12809 whole entry): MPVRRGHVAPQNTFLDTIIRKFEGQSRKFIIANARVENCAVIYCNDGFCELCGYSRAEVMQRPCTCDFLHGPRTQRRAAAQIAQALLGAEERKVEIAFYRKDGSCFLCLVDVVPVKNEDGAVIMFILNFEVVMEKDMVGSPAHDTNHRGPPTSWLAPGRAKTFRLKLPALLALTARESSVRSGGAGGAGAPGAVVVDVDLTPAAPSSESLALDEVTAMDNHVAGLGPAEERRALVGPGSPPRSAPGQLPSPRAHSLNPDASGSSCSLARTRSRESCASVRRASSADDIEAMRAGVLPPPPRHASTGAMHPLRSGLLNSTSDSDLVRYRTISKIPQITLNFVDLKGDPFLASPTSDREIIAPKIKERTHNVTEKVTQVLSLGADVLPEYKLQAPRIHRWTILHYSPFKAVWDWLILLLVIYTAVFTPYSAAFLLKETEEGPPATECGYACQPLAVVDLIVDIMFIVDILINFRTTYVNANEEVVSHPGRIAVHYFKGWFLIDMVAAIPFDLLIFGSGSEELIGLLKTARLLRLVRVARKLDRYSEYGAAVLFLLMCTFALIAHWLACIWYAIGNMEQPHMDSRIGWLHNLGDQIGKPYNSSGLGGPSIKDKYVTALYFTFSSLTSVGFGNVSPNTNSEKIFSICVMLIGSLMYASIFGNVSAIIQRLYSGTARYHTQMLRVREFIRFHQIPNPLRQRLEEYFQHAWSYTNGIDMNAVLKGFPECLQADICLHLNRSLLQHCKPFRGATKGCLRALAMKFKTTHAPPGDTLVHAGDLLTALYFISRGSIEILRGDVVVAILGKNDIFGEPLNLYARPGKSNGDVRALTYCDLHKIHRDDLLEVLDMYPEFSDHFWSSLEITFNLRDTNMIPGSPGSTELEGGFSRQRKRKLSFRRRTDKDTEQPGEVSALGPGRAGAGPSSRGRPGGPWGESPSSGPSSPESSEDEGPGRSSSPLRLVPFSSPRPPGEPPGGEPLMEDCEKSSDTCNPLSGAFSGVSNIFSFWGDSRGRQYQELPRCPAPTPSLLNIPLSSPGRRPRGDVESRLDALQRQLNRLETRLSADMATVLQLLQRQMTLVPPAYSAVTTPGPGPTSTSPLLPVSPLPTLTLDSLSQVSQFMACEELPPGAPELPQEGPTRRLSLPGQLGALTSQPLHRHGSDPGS

[
  {
    "MOLECULE": "CC(O)C#Cc1c(Cl)c2c(Cl)cc(C(N)=O)nc2n1[C@H]1CCCNC1 (some centres not stated)",
    "TARGET_ENTITY": "hERG (KCNH2) (Homo sapiens)",
    "inhibition at 10 µM [%]": 20
  },
  {
    "MOLECULE": "CC(O)CC#Cc1c(Cl)c2c(Cl)cc(C(N)=O)nc2n1[C@H]1CCCNC1 (some centres not stated)",
    "TARGET_ENTITY": "hERG (KCNH2) (Homo sapiens)",
    "inhibition at 10 µM [%]": 23
  },
  {
    "MOLECULE": "CC(C)(O)C#Cc1c(Cl)c2c(Cl)cc(C(N)=O)nc2n1[C@H]1CCCNC1",
    "TARGET_ENTITY": "hERG (KCNH2) (Homo sapiens)",
    "inhibition at 10 µM [%]": 47
  },
  {
    "MOLECULE": "NC(=O)c1cc(Cl)c2c(Cl)c(C#CC3CC3)n([C@H]3CCCNC3)c2n1",
    "TARGET_ENTITY": "hERG (KCNH2) (Homo sapiens)",
    "inhibition at 10 µM [%]": 97
  },
  {
    "MOLECULE": "NC(=O)c1cc(Cl)c2c(Cl)c(C#CCCO)n([C@H]3CCCNC3)c2n1",
    "TARGET_ENTITY": "hERG (KCNH2) (Homo sapiens)",
    "inhibition at 10 µM [%]": 25
  },
  {
    "MOLECULE": "NC(=O)c1cc(Cl)c2c(Cl)c(C#CCO)n([C@H]3CCCNC3)c2n1",
    "TARGET_ENTITY": "hERG (KCNH2) (Homo sapiens)",
    "inhibition at 10 µM [%]": 28
  },
  {
    "MOLECULE": "NC(=O)c1cc(Cl)c2c(Cl)c(C#CC3COCCO3)n([C@H]3CCCNC3)c2n1 (stereo in doubt; 22b)",
    "TARGET_ENTITY": "hERG (KCNH2) (Homo sapiens)",
    "inhibition at 10 µM [%]": 86
  }
]

====

We begin with a simple list: items and their reported Vd.
experiment: Volume of distribution at steady state in rat at 3 mg/kg, iv administered as single dose; format: ADME, organism-based; details: in vivo, read-out: Vdss
EXPERIMENTAL_ENDPOINT: Vd (L/kg)

[
  {
    "MOLECULE": "NC(=O)c1cc(Cl)c2c(Cl)c(C#CC3CCCO3)n([C@H]3CCCNC3)c2n1 (stereo in doubt; 20b)",
    "UNIT_OF_MEASURE": "L/kg",
    "OBSERVED": 19.6
  },
  {
    "MOLECULE": "COCCC#Cc1c(Cl)c2c(Cl)cc(C(N)=O)nc2n1[C@H]1CCCNC1",
    "UNIT_OF_MEASURE": "L/kg",
    "OBSERVED": 18.6
  },
  {
    "MOLECULE": "NC(=O)c1cc(Cl)c2c(Cl)c(C#CC3CCOCC3)n([C@H]3CCCNC3)c2n1",
    "UNIT_OF_MEASURE": "L/kg",
    "OBSERVED": 63
  }
]

====

test: Clearance in human liver microsomes assessed as drug extraction at 5 uM; type: ADME, Microsome; settings: liver microsomes, read-out: CLH
Our labelling divides records by hepatic extraction ratio at 5 µM into ranges: low: < 0.03; mid: ≥ 0.03 and < 0.1; high: ≥ 0.1

[
  {
    "COMPOUND": "NC(=O)c1cc(Cl)c2c(Cl)c(C#CCCO)n([C@H]3CCCNC3)c2n1",
    "LABEL_CLASS": "low"
  },
  {
    "COMPOUND": "COC(C)(C)CC#Cc1c(Cl)c2c(Cl)cc(C(N)=O)nc2n1[C@H]1CCCNC1",
    "LABEL_CLASS": "high"
  },
  {
    "COMPOUND": "CN1CC(C#Cc2c(Cl)c3c(Cl)cc(C(N)=O)nc3n2[C@H]2CCCNC2)CC1=O (some centres not stated)",
    "LABEL_CLASS": "mid"
  },
  {
    "COMPOUND": "CC(C)(CC#Cc1c(Cl)c2c(Cl)cc(C(N)=O)nc2n1[C@H]1CCCNC1)C(N)=O",
    "LABEL_CLASS": "low"
  },
  {
    "COMPOUND": "CC(C)(O)C#Cc1c(Cl)c2c(Cl)cc(C(N)=O)nc2n1[C@H]1CCCNC1",
    "LABEL_CLASS": "low"
  },
  {
    "COMPOUND": "CC(O)CC#Cc1c(Cl)c2c(Cl)cc(C(N)=O)nc2n1[C@H]1CCCNC1 (some centres not stated)",
    "LABEL_CLASS": "mid"
  },
  {
    "COMPOUND": "COCCC#Cc1c(Cl)c2c(Cl)cc(C(N)=O)nc2n1[C@H]1CCCNC1",
    "LABEL_CLASS": "high"
  },
  {
    "COMPOUND": "NC(=O)c1cc(Cl)c2c(Cl)c(C#CCO)n([C@H]3CCCNC3)c2n1",
    "LABEL_CLASS": "low"
  },
  {
    "COMPOUND": "NC(=O)c1cc(Cl)c2c(Cl)c(C#CC3CCOCC3)n([C@H]3CCCNC3)c2n1",
    "LABEL_CLASS": "mid"
  },
  {
    "COMPOUND": "CC(O)C#Cc1c(Cl)c2c(Cl)cc(C(N)=O)nc2n1[C@H]1CCCNC1 (some centres not stated)",
    "LABEL_CLASS": "low"
  },
  {
    "COMPOUND": "CC1(CC#Cc2c(Cl)c3c(Cl)cc(C(N)=O)nc3n2[C@H]2CCCNC2)COC1",
    "LABEL_CLASS": "high"
  },
  {
    "COMPOUND": "CC1(C#Cc2c(Cl)c3c(Cl)cc(C(N)=O)nc3n2[C@H]2CCCNC2)COC1",
    "LABEL_CLASS": "mid"
  },
  {
    "COMPOUND": "NC(=O)c1cc(Cl)c2c(Cl)c(C#CC3CC3)n([C@H]3CCCNC3)c2n1",
    "LABEL_CLASS": "high"
  }
]

// data source = ChEMBL document CHEMBL4371067
